Form field: IC50 of inhibition of MASP-2-catalyzed C4 cleavage (4% human serum, C4b ELISA) (one value per entry).
target: human MASP-2 of human serum (human, UniProt O00187 16-686); test: cell-based or functional assay
Sequence (O00187 16-686 limits assumed): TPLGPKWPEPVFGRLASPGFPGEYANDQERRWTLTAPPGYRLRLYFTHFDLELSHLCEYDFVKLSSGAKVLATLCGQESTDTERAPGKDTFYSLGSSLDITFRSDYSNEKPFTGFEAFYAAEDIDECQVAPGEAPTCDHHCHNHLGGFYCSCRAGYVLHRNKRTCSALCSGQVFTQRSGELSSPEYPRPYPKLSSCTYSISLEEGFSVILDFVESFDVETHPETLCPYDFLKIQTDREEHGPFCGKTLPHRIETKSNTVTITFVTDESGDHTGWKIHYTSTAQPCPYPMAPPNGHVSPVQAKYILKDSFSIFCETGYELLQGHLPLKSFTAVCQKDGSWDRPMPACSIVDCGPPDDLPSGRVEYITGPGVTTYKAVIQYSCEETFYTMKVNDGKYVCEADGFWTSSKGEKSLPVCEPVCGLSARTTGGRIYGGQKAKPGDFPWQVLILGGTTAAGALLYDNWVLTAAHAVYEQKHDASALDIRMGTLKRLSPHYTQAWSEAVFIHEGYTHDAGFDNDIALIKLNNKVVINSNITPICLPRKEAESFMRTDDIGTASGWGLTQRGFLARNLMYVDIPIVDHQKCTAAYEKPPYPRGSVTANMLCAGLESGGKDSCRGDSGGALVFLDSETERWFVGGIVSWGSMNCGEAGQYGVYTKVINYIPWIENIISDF
Record the value in nM, omitting the unit from your answer.

binder	reported
murine anti-human MASP-2 monoclonal antibody 126 (antibody, V domains shown) VH: DVQLVESGGGLVQPGGSRKLSCVASGFTFSSFGMHWVRQAPEKGLEWVAYISSGSSSSFYVDTVKGRFTISRDNPKNTLFLQMTSLRSEDTAMYYCARGDRNFEVWGAGTTVTVSS VL: DIVLTQSPASLAVSLGQRATISCRASQSVSSSRYSYMHWFQQKPGQPPNLLIKHASNLESGVPARFSGSGSGTDFTLNIHPVEEEDTATYYCQQSWEVPWTFGGGTKLEIK	0.0774
murine anti-human MASP-2 monoclonal antibody 100 (antibody, V domains shown) VH: DVQLVESGGGLVQPGGSRKLSCAASGFTFSNFGIHWVRQAPEKGLEWVAYISSGGSAVFYADTVKGRFTISRDNSKNTLFLQMTSLRSEDTAIYYCAKSDRYFDYWGQGTTLTVSS VL: DIVLTQSPASLAVSLGQRATISCRASQSVSSSSYRYIHWYQQKPGQPPRLLIKYASNLESGVPARFSGSGSGTDFTLNIHPVEEEDTATYYCQHSWETPWTFGGGTKLEIK	0.238
murine anti-human MASP-2 monoclonal antibody 120 (antibody, V domains shown, Murine monoclonal antibody purified from hybridoma by Protein G) VH: DVQLQESGPGLVKPSQSLSLTCTVTGYSITSDYAWSWIRQFLRNKLEWMGYISYSGRTSYNPSLKSRISITRDTSKNQFFLQLNSVTTEDTATYFCARLITGGDYWGQGTSVTVSS VL: DIVMTQSQKFMSTSVGDRVSVTCKASQNVGINVVWYQQKPGQSPKALIYSASYRFSGVPDRFTGSGSGTDFTLTISNVQSEDLAEYLCLQYDINPLTFGAGTKLELK	0.275
murine anti-human MASP-2 monoclonal antibody 115 (antibody, V domains shown) VH: DVQLVESGGGLVQPGGSRKLSCAASGFTFSSFGMHWVRQAPEKGLEWVAYISSGSSSFFYADTVKGRFTISRDNPKNTLFLQMTSLRSEDTAMYYCARGDRNFDVWGAGTTVTVSS VL: DIVLTQSPASLAVSLGQRATISCRASQSVTSSRYSYMHWFQQKPGQPPNLLIKHASNLESGVPARFSGSGSGTDFTLNIHPVEEDDTATYYCQHSWEVPWTFGGGTKLEIK	0.0826
murine anti-human MASP-2 monoclonal antibody 124 (antibody, V domains shown, Murine monoclonal antibody purified from hybridoma by Protein G) VH: DVQLQESGPGLVKPSQSLSLTCTVTGYSITSDYAWNWIRQFPGNKLEWMGYISYSGRTSYNPSLKSRLSITRDTSKNQFFLQLTSVTTEDTATYYCARHYGDFWGQGTTLTVSS VL: DIVMTQSQKFMSTSVGDRVSVTCKASQNVDTNVAWFQQKPGQSPKPLIYSASYRYSGVPDRFTGSGSGTDFTLTISNVQSEDLANYFCQQYNSYPSTFGSGTKLEIK	0.15

Query block: For murine anti-human MASP-2 monoclonal antibody 136 (antibody, V domains shown) VH: QVQLQQSGAELAKPGASVKMSCKASGNTFTNYWMHWIKQRPGQGLEWVGYINPNTGYTDFNQKFKDKATLTADKSSTTAYMQLISLTSEDSTVYYCTLQLGRNFDYWGQGTTLTVSS VL: DIVLTQSPASLGVSLGQRATISCRASQSVSSSRSTYIHWYQQKPGQPPKLLIKYSSNLESGVPARFSGGGSGTDFTLNIHPVEAEDTATYYCHQSWEIPYTFGGGTKLEIR , write its IC50 of inhibition of MASP-2-catalyzed C4 cleavage (4% human serum, C4b ELISA).
Result block: 0.0757

Query block: Tell us which IC50 of inhibition of MASP-2-catalyzed C4 cleavage (4% human serum, C4b ELISA) value is on record for murine anti-human MASP-2 monoclonal antibody 60 (antibody, V domains shown, Murine monoclonal antibody purified from hybridoma by Protein G) VH: QVQLQQSGAELMKPGASVKISCKATGYPFSTYWIEWVKQRPGHGLEWIGEILPGSDNTNYNEKFKGKATFTADTSSNTAYMQLSSLTSEDSAVYYCARRTTATRAWFVYWGQGTLVTVSA VL: DIVMSQSPSSLAVSVGEKVTMSCKSSQSLLYSSNQKNYLAWYQQKPGQSPKLLIYWASTRESGVPDRFTGSGSGTDFTLTISSVRAEDLAVYYCQHYYTYPWTFGGGTNLEIK
Result block: 0.161
